- measured target: 5-lipoxygenase (Rattus norvegicus, UniProt P12527)
- Construct: endogenous in cells
- Sequence (P12527 whole entry): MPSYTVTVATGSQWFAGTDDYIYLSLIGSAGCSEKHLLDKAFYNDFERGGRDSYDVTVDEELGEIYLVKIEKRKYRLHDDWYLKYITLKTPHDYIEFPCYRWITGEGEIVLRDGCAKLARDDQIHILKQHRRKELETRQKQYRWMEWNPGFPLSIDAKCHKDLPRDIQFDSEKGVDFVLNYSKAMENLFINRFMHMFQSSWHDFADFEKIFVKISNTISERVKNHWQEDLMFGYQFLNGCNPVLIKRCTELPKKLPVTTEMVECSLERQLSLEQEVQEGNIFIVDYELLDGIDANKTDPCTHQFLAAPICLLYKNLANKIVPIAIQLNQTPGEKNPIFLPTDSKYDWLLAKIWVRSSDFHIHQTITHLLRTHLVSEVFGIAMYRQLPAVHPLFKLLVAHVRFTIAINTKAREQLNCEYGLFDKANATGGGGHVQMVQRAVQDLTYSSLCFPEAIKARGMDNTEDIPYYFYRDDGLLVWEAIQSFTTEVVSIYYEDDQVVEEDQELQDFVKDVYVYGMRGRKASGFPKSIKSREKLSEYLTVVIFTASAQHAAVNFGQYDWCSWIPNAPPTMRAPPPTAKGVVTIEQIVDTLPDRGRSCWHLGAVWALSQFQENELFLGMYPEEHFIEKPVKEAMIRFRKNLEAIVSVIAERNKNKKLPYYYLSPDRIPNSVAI
- measurement protocol: 5-lipoxygenase inhibition, 10,000×g supernatant from homogenized rat basophilic leukemia (RBL-1) cells
- condition summary: RBL-1 10,000×g supernatant, pH 7.0, 5 min incubation with compound, 14C-arachidonic acid, 37° C., two minutes
value kind: IC50 (nM)

Worked cases, IC50 given:
{"columns": ["molecule", "display unit", "data value"],
 "data": [
  ["CC(=O)Oc1c(Cc2ccccc2)ccc2c1ccn2C", "nM", 420],
  ["Cn1ccc2c(O)c(Cc3ccccc3)ccc21 [Example 1a, 1-Methyl-4-hydroxy-5-phenylmethylindole]", "nM", 56]
]}

1 = Oc1c(Cc2ccccc2)ccc2c1ccn2Cc1ccccc1
2 = Oc1c(Cc2ccccc2)ccc2sccc12
3 = Oc1c(Cc2ccccc2)ccc2occc12
// query Rank by IC50 (largest to smallest). As an answer, provide the labels arranged in the order called for.
// result 3, 2, 1
(3: 400 nM, 2: 130 nM, 1: 42 nM)
